- system: Gastrin-releasing peptide receptor (Rattus norvegicus) (UniProt P52500)
- Sequence (P52500 whole entry): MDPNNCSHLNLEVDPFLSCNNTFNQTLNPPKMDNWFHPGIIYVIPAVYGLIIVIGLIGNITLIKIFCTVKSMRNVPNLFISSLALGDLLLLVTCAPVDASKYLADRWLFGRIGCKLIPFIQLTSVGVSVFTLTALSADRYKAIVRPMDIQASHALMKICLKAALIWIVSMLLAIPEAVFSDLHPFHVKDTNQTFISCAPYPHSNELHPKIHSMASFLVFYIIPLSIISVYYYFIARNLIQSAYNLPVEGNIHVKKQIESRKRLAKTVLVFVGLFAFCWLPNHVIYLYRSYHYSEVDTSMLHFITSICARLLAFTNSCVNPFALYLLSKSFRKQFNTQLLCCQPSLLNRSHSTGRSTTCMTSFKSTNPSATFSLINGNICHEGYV
- experimental.protocol: Tested for the inhibition of Bombesin-stimulated amylase release at 5 uM concentration in the presence of 0.2 nM of bombesin in rat pranceatic acini
- Format: functional
Where a SMILES comes first, the peptide text is derived from it. The star is where a group is joined. X2 = CC(=O)NC[C@H](CC(C)C)N*; For = O=C*
Known Release of a selection of compounds
parameter.measured: Release (%)

INSERT INTO assay_data (compound, system, output_unit, quantitative_result) VALUES
  ('CCCCC[C@H](CC(C)C)NC(=O)[C@H](Cc1c[nH]cn1)NC(=O)CNC(=O)[C@@H](NC(=O)[C@H](C)NC(=O)[C@H](Cc1c[nH]c2ccccc12)NC(=O)[C@@H](Cc1c[nH]cn1)NC(=O)C(C)(C)C)C(C)C', 'Gastrin-releasing peptide receptor (Rattus norvegicus) (UniProt P52500)', '%', 6.3),
  ('CC(C)C[C@@H](CN[C@@H](CC(C)C)C(N)=O)NC(=O)[C@H](Cc1c[nH]cn1)NC(=O)CNC(=O)[C@@H](NC(=O)[C@H](C)NC(=O)[C@H](Cc1c[nH]c2ccccc12)NC(=O)[C@H](CCC(N)=O)NC(=O)[C@H](CC(N)=O)NC(=O)CNC(=O)[C@H](CC(C)C)NC(=O)[C@H](CCCN=C(N)N)NC(=O)[C@H](CCC(N)=O)NC(=O)[C@@H]1CCC(=O)N1)C(C)C', 'Gastrin-releasing peptide receptor (Rattus norvegicus) (UniProt P52500)', '%', 6.2),
  ('CC(=O)NC[C@H](CC(C)C)NC(=O)[C@H](Cc1c[nH]cn1)NC(=O)CNC(=O)[C@@H](NC(=O)[C@H](C)NC(=O)[C@H](Cc1c[nH]c2ccccc12)NC(=O)[C@H](CCC(N)=O)NC(=O)[C@H](N)Cc1ccccc1)C(C)C', 'Gastrin-releasing peptide receptor (Rattus norvegicus) (UniProt P52500)', '%', 3.6),
  ('CC(=O)NC[C@H](CC(C)C)NC(=O)[C@H](Cc1c[nH]cn1)NC(=O)CNC(=O)[C@@H](NC(=O)[C@H](C)NC(=O)[C@H](Cc1c[nH]c2ccccc12)NC(=O)[C@H](CCC(N)=O)NC(=O)[C@@H](Cc1ccccc1)NC(C)=O)C(C)C', 'Gastrin-releasing peptide receptor (Rattus norvegicus) (UniProt P52500)', '%', 4.3),
  ('CSCC[C@H](NC[C@H](CC(C)C)NC(=O)[C@H](Cc1c[nH]cn1)NC(=O)CNC(=O)[C@@H](NC(=O)[C@H](C)NC(=O)[C@H](Cc1c[nH]c2ccccc12)NC(=O)[C@H](CC(N)=O)NC(=O)CN)C(C)C)C(N)=O', 'Gastrin-releasing peptide receptor (Rattus norvegicus) (UniProt P52500)', '%', 24.5),
  ('CC(=O)NC[C@H](CC(C)C)NC(=O)[C@H](Cc1c[nH]cn1)NC(=O)CNC(=O)[C@@H](NC(=O)[C@H](C)NC(=O)[C@H](Cc1cn(C=O)c2ccccc12)NC(=O)[C@H](Cc1c[nH]cn1)NC(=O)[C@H](CCC(N)=O)NC(C)=O)C(C)C (Ac-QHW(For)AVGH-X2)', 'Gastrin-releasing peptide receptor (Rattus norvegicus) (UniProt P52500)', '%', 12.5);
